Molecular target: Cell division control protein 42 homolog (Homo sapiens, UniProt P60953)
Sequence (P60953 whole entry): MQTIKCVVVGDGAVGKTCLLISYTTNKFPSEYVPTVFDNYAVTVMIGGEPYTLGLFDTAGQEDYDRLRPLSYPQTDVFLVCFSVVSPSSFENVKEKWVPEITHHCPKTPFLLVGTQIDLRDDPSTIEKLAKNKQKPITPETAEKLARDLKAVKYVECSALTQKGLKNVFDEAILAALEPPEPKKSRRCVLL
Assay: Cdc42 activated mutant GTP-binding inhibitors, SAR follow-up, biochemical, bead-based multiplex flow cytometry, additional SAR set (AID 2021)
pEC50: −log10 of the molar value.
METRIC_NAME: pEC50

1. O=C1Nc2ccc(Br)cc2C1=C1Nc2ccccc2C1=O
4.52
2. O=C1Nc2c(Cl)cccc2C1=C1Nc2ccccc2C1=O
4.52
3. O=C1N=c2c(Cl)cccc2=C1c1[nH]c2ccccc2c1NO
4.52
4. O=C1N=c2c(F)cccc2=C1c1[nH]c2ccccc2c1NO
4.52
5. O=C1N=c2ccc(Br)cc2=C1c1[nH]c2ccccc2c1NO
4.52

[P] O=C1Nc2ccccc2/C1=C1/Nc2ccccc2C1=O
[Q] O=C1N=c2c(Br)cccc2=C1c1[nH]c2ccccc2c1NO
[R] O=C1NC(=O)/C(=C2/C(=O)Nc3ccccc32)N1
Query :: Thanks in advance: please rank these 3 entries by pEC50, highest to lowest. List labels; respect the requested ordering.
Result :: R, P, Q
(R: 5.28, P: 4.52, Q: 4.26)
